These measurements were taken from PubChem BioAssay AID492956.

Molecular target: Platelet-activating factor acetylhydrolase 2, cytoplasmic (Homo sapiens)
Assay: PAFAH2 enzyme inhibitors, primary screen, biochemical, fluorescence polarization, human (AID 492956);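 further: inhibitors block probe labeling of enzyme so polarization drops; 0% = enzyme with DMSO and 100% = wells lacking PAFAH2 protein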
Conditions: recombinant PAFAH2, FP-rhodamine activity probe, at 3.39 µM
About 3,300 (0.97%) of roughly 340,000 compounds were called active.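 How the source made its calls: active means inhibition above the mean over all tested compounds plus 3 SD (cut at about 30% in these data); inactive means the rest.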 This excerpt belongs to a sample that is enriched for actives.
Please reply with one of these outcomes: 1 = active, 0 = inactive

- Compound: "Cc1ccc(S(=O)(=O)N(C)c2ccc(C(=O)NCC3(N(C)C)CCCCC3)cc2)cc1"
  Target Or System: "Platelet-activating factor acetylhydrolase 2, cytoplasmic (Homo sapiens)"
  Group: 0
- Compound: "COc1ccc(C(=O)C2CCCN(Cc3ccc(C)s3)C2)cc1OC (stereo not given)"
  Target Or System: "Platelet-activating factor acetylhydrolase 2, cytoplasmic (Homo sapiens)"
  Group: 0
- Compound: "CC(C)c1ccc(-n2c(O)c(/C=N/N3CCOCC3)c(=O)[nH]c2=S)cc1"
  Target Or System: "Platelet-activating factor acetylhydrolase 2, cytoplasmic (Homo sapiens)"
  Group: 0
- Compound: "N=c1ccccn1Cc1ccccc1"
  Target Or System: "Platelet-activating factor acetylhydrolase 2, cytoplasmic (Homo sapiens)"
  Group: 0

Problem: State the result this test recorded for "COc1ccc2[nH]c3c(c2c1)CCN[C@H]3C" .
Result: 0

Problem: Lookup "CCN1CCN(c2ccc([N+](=O)[O-])cc2C#N)CC1"
Result: 0

Problem: Here is the next compound: "COc1ccc(-n2c(-c3ccccc3)nc3ccccc3c2=O)cc1"
Result: 0

* * *

Biological target: Platelet-activating factor acetylhydrolase 2, cytoplasmic (Homo sapiens)
Test: PAFAH2 enzyme inhibitors, primary screen, biochemical, fluorescence polarization, human (AID 492956);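 further: inhibitors block probe labeling of enzyme so polarization drops; 0% = enzyme with DMSO and 100% = wells lacking PAFAH2 protein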
Settings: recombinant PAFAH2, FP-rhodamine activity probe, at 3.39 µM
The campaign covered roughly 340,000 compounds. About 3,300 (0.97%) were called active.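 The calls were made as follows: active = inhibition above the mean over all tested compounds plus 3 SD (cut at about 30% in these data); inactive = the rest.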 What follows is part of a selection rich in actives, with near analogues and random picks from the rest.
Classes to choose from: T = active, F = inactive

The examples below pair each entry with its known result.
- Compound: "COc1ccccc1N=C1SCCCN1C"
  Group: "F"
- Compound: "C[C@]12CCCCC1=CC(=O)C1C2CC[C@@]2(C)C1C[C@@H](F)[C@@H]2O (stereo partly drawn)"
  Group: "F"
- Compound: "C=CCN1C(=O)NC(=O)/C(=C/c2ccc(OCC(=O)Nc3ccc(C)cc3)cc2)C1=O"
  Group: "F"
- Compound: "O=C1NC(=O)N(c2ccccc2)C(=O)/C1=C/c1ccc([N+](=O)[O-])s1"
  Group: "T"
- Compound: "CC12CCC(O)CC1CCC1C2CCC2(C)C(C(=O)CC(O)C(F)(F)F)CCC12 (stereo not drawn)"
  Group: "F"

Problem: Hi, sorry to bother you, what did the test record for "Cc1cccc(N2C(=O)NC(=O)/C(=C\c3cnn(-c4ccccc4)c3)C2=O)c1" ?
Result: T

Problem: Repeat for the following compound: "CCN1CCN(c2nc3c(c(=O)[nH]2)CCC3)CC1"
Result: F

Problem: What do we get for CC(Cc1cccs1)NCc1ccc(Cl)cc1 (stereo not drawn) ?
Result: F

Problem: Similarly, CC12CCC3C(CCC4CC(=O)CCC43C)C1CC(=NO)C2=O (stereo not drawn) ?
Result: F

Problem: Entry to check: "Cc1ccnc(-n2c(C)cc(/C=C3\C(=O)NC(=S)N(C)C3=O)c2C)c1"
Result: F

Problem: What would you report for "CN1CCN(C(=S)SCC(=O)Nc2ccc(Cl)cc2C(=O)c2ccccc2)CC1" ?
Result: F

Problem: Please do the same for "CCc1nc2ccccc2c(=O)n1-c1cccc(OC)c1" as well.
Result: F

Problem: Entry to check: "COc1ccc(N2C(=O)/C(=C/c3ccco3)C(=O)NC2=S)cc1"
Result: T

Problem: What do you get for "O=C1NC(=O)N(c2ccc(F)cc2)C(=O)/C1=C/c1ccc2c(c1)CCCN2Cc1ccccc1" ?
Result: F

Problem: Same thing, different compound: "COc1cccc(N2C(=O)NC(=O)/C(=C\c3cn(C)c4ccccc34)C2=O)c1"
Result: T

Problem: Same thing, different compound: O=C(Cn1c(=O)n(CC2CS2)c2ccccc21)N1CCCCC1 (stereo not drawn)
Result: F

Problem: Also "O=C(CCNS(=O)(=O)c1ccccc1)Nc1ccc(Cl)cc1C(=O)c1ccccc1" ?
Result: F

Problem: Follow-up entry: "NCCc1ccc(S(=O)(=O)F)cc1"
Result: T
